# Tested on: MS2 coat protein
# PROTOCOL_SUMMARY: apparent KD of MS2 coat protein; higher = weaker reporter binding
# PROTOCOL_CONDITIONS: Eterna round: R107; input ligand: arginine 13.2 mM
// label = T if apparent KD of MS2 coat protein is not less than 0.1 µM, otherwise F

# RESIDUE_STRING, ASSAY_TARGET, LABEL
data = [
    ("AUAUGAAAGAGUGAUACCAGACUACAUGAGGAUCACCCAUGUGACAUUUAAAUAUCAUUUGUCCCUUGGCAGCACAUUAAGUACA [JR_Nu_ExcTheophyB_Sub021]", "MS2 coat protein", "F"),
    ("ACGUUGUAGUCGGCCGCCACUGUUUUCAUGUUCAACAUGAGGAUCACCCAUGUACCUUUUUUUAUCAGGACCGGGACGUAUUCGA [JR_SSTryptoB_Sub003]", "MS2 coat protein", "F"),
    ("UUGGGUUUGUGAAGGAGCGGGAAUGUUUUAUAGUGGAUCCUAACAUGAGGAUCACCCAUGUCCCAGGUAGGUCGCGCGGGUUUGG [12.S]", "MS2 coat protein", "F"),
    ("CGGUCGGUCGGCCGGUGAUUAUGGGAUGAAGGAGCGUGGGAAGCUACAGGUAGGUCGCAUCCGAACCAUGAGGAUCACCCAUGGU [SSArg A #23Alt-Ms2 Mod]", "MS2 coat protein", "F"),
    ("UUAUAUAUACAUGAGGAUCACCCAUGUGAUACCAGCCUGGAAACAGGCCCUUGGCAGCACAAAUACUCCAGAAAAUAUAAUAAAU [MAT - Exclusion Theophlline A - Mod of Eli - D4]", "MS2 coat protein", "F"),
    ("CUGCUACAUGAGGAUCACCCAUGUGGAGAUACCAGCCUGAACGAUGGCCCUUGGCAGCUCUUAGCUGGUGAUCAUAUAUUUCAGA [Zazaat]", "MS2 coat protein", "F"),
    ("AAAAUAAAUAAAACGCGUAACAUGAAGGAUACCAGCCAGAAAACUGGCCCUUGGCAGCCUCUACAUGAGGAUCACCCAUGUCGCG [Mat - Same State Theophlline A - Mod of Eli - D15]", "MS2 coat protein", "T"),
    ("UGUAUGUGAUCUGAUACCAGUCCAACUGGUAAAGCAUGAGGAUCACCCAUGCAAAAUUGGGACCCUUGGCAGCAGAUCGCAUACU", "MS2 coat protein", "T"),
    ("UUAAUCUUGGAUGAAAACAUUUAAGCAGAAGGAGCGUGAUAAAACACAGGUAGGUCGCUGAAGGGAACAUGAGGAUCACCCAUGU [AstrosSSArgA#15]", "MS2 coat protein", "F"),
    ("CAUUGUUAGACGGCCGCCACUUUUGGUUCGGAACGAUCGAUUGGACAUGAGGAUCACCCAUGUGGAAGGACCGGGUCUAAUCAAA [theeternabot_sameState_MS2_Trp_B_20]", "MS2 coat protein", "F"),
    ("AGAUUCGACACGGCCGCCACUCUACACGGAUUUCCGAGUGUCGAACAUGAGGAUCACCCAUGUGGGAGGACCGGGUGUUGAGUCU [XTryp B #11]", "MS2 coat protein", "T"),
    ("GGUGACUGCAUGUGGAAUUAAGGUAGGGAAGGAGCGCGGUAAGACGCAGGUAGGUCGCCCUACAUGAGGAUCACCCAUGUGGUGU [Beenmaer]", "MS2 coat protein", "T"),
    ("AAUAAUAGGUGAUCCUAACGAGUGGCAUAACGAGGACCGGUACGGCCGCCACUCGAACAUGAGGAUCACCCAUGUAGUCACUCGA [M'-T'-T-MS2-T'' - Design 5]", "MS2 coat protein", "F"),
]

---

# System: MS2 coat protein
# PROTOCOL_SUMMARY: apparent KD of MS2 coat protein; designed switch direction (-1 OFF switch, 1 ON switch): 1; higher = weaker reporter binding
# PROTOCOL_CONDITIONS: Eterna round: R95; input ligand: microRNA oligo, concentration not stated
Could you label it satisfied if measured apparent KD of MS2 coat protein is 20 nM or higher, and not satisfied otherwise?

# RESIDUE_STRING, ASSAY_TARGET, LABEL
rows = [
    ("AAGGUCUUCGUACAGGAUAUGCACUUGUGCACAUGAGGAUCACCCAUGUGGGAAAAGGUCACAGGGCAGAAGGGUAUUUAUAAAA [Erriti] (puzzle: Same State 2)", "MS2 coat protein", "satisfied"),
    ("GGUCCAGCCUGAGCUGGACAAAAGCAUGUACAUGAGGAUCACCCAUGUCAUGUACAAGCUUUUUGCUCGUCUUAAUA [Mat - hsa-mir-208a - 89] (puzzle: Sensor for hsa-mir-208a)", "MS2 coat protein", "not satisfied"),
    ("AUAAAACAUGAGGAUCACCCAUGUUAACAAAGUCGAGGAUAUGGGCAAAUAAAAUAAGAACCAGAAGGCGAAUAAU [salish99_ss1_r3_045] (puzzle: Same State 1)", "MS2 coat protein", "satisfied"),
    ("CCGAUGAUAGGACAGGAUAUGACUGUCGUCACAUGAGGAUCACCCAUGUCCCGGCAAUGCCACCGUUAGAAGGGUCCCAUCUCGG [Uslainarin] (puzzle: Same State 2)", "MS2 coat protein", "not satisfied"),
    ("GGUCCAGCCUGAGCUGGACAAAAGCAUGUACAUGAGGAUCACCCAUGUCAUGUACAAGCUUUUUGCUCGUCUAAAUU [Mat - hsa-mir-208a - 94] (puzzle: Sensor for hsa-mir-208a)", "MS2 coat protein", "not satisfied"),
    ("UUAAGCCACGGGCAGGAUAUGUAUUAAAAUACAUGAGGAUCACCCAUGUGCAGGUGUAACACCUGGCAGAAGGGCCAAUCGCGGC [Soondi - 4] (puzzle: Same State 2)", "MS2 coat protein", "satisfied"),
    ("GGUCCAGCCUGAGCUGGACAAAAGCAUGUACAUGAGGAUCACCCAUGUCAUGUACAAGCUUUUUGCUCGUCAUAAUG [Mat - hsa-mir-208a - 99] (puzzle: Sensor for hsa-mir-208a)", "MS2 coat protein", "not satisfied"),
    ("UGGAUCUAGGCUUGCCUGGGUCCAUGCUGACAUGAGGAUCACCCAUGUGCAUCCUACAAGCUUUUUGCUUGUCAGUU (puzzle: Sensor for hsa-mir-208a)", "MS2 coat protein", "satisfied"),
    ("AGUCCAGCCUGAGCUGGACAAAAGCAUGUACAUGAGGAUCACCCAUGUCGUGUACAAGCUUUUUGCUCGUCUUAAUA [Zipper 49 - 4] (puzzle: Sensor for hsa-mir-208a)", "MS2 coat protein", "not satisfied"),
    ("GACAGGCAAGCUUUUUUCUCGUAGUGUAAACAUGAGGAUCACCCAUGUGCUCGCCCUAGAUCUUUGGAUCGCAGAAA [Ceedes] (puzzle: Sensor for hsa-mir-208a)", "MS2 coat protein", "satisfied"),
    ("AACCUACAUGAGGAUCACCCAUGUGUCUAAGGCACAGGAUAUCGACAGGCAAGACGCCUGCGAGAAGGGUGACCUA [Erononer] (puzzle: Same State 1)", "MS2 coat protein", "satisfied"),
]

---

Recorded apparent KD of K4 kissing-loop reporter by entry
# System: K4 kissing-loop RNA reporter;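 further: bound reporter read as fluorescence of individual clusters on recovered sequencing chips by microscopy, with normalized cluster intensities fitted with a binding model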
# PROTOCOL_SUMMARY: apparent KD of K4 kissing-loop reporter; higher = weaker reporter binding
# PROTOCOL_CONDITIONS: Eterna round: R107; input ligand: FMN 200 uM

# RESIDUE_STRING, apparent KD of K4 kissing-loop reporter
rows = [
    ("GGCCGGCCGGGAAGGAGCGGGAGUGAUGUUUUCGCAAAGAAAGAUAUAAAAGAAACGAAAUCCCAGGUAGGUCGCCCGGCCGGUU", "64.4 nM"),
    ("AGAGAGGUGUUUUUUUGAAGUGAGUAAUGGCGAGGACCGGUACGGCCGCCACUCGGGUGAUGUUAGUGAUGUUGAUGUAGUGAUG [yrymullin]", "79.3 nM"),
    ("AAAAUAAAGGAGUGAUGUUCCAUAUGUGAUACCAGCCACGAAAGUGGCCCUUGGCAGCACUGCCAAGUGGACGAAAACGUCCACA [#OpenEnded 5 #StaticStem #K4Early]", "125 nM"),
    ("GACUCAUGUAGAAGGAGCGUCAGAAGUUAUAGACAUGAGUGAUGUUCAUGUUAGCUGAUUUGACAGGUAGGUCGCUACAGCAGGA [KL-SSArg B16 #analogue]", "126 nM"),
    ("CUGAGCUGCAGCGAUACCAGUGUGGAGUGAUGUUCCCUGGUCCGGGCUGUUGUUCCCUUGCGCCCUUGGCAGCGCAGGAGCAGGG [Exclusion Theophylline B GF 15]", "506 nM"),
    ("GGGAGUUAUUACGGCAGGGUCGAUACGGAUACCAGUAGGCGGCUCUACCCUUGGCAGCCGUAACAUGGUAGUGAUGUUAUCAGUC [theeternabot_exclusion_KL_Theo_A_24]", "527 nM"),
    ("UGUCAUUGGUCUGAUACCAGAAGAAAUCUGGAGUGAUGUUCCAAGUACGACAAAAGUCGCUUCCCUUGGCAGCAGACCGAUGACU [TheoBS 21 #SwitchBubble 13 #StaticStem]", "705 nM"),
    ("CCGGCCCGGCCGGAUACCAGUGCGCCGCUGUGAACUGCGGGCCCAGAGUGAUGUUCGGGACACCCUUGGCAGCCGCCUGGGUCGC [#2 Same State - Theophylline B Attempt #26 (HarryS)]", "358 nM"),
    ("ACCCGGGCCCGAAAGGGCCCGGGAAGAGAUACCAGCAGCGAAAGCUGCCCUUGGCAGCUCACUUAGUGAUGUUGAGUAUAGGGUA [#22 K4 Theophylline A Same State]", "1100 nM"),
    ("AGUCCACUCUAAAGAGUGGACCUAAGGGAUACCAGUGAUGUUGGUCACCCUUGGCAGCCCACUGUCAUCGAUAAAGAUGGCAGAA", "120 nM"),
    ("AUUCUGUUUUUAAUGUUUAUUGUAUAAUGGCAGGAUAUCGUAGAAGCGAGAAGGGCUUUUAUGCGUUAUGAGUGAUGUUUGUAGG [dhhyfvmullin]", "364 nM"),
    ("ACUGAGCAUGCGGCCGCCACUUCAGAACGUCGCCCAGAGGGCGACGCCUCCGCAGUGAUGUUGUGGAGGACCGGGCAUGUUCAGA [Omei KL Tryp B Exc A v5]", "419 nM"),
    ("AUAGCACCUUAUGAUACCAGACGAGUGAUGUUCUGUGGUGUCGUCACAAGGCAAUCGACUGUCCCUUGGCAGCAUCAUUCUAUAU [theeternabot_exclusion_KL_Theo_B_31]", "563 nM"),
    ("CCAACGUGAAAAGGAUAUCGCGAUGUGCACGACUAGUGAUGUUAGGAGAGGCUCGUUGAAUUGUACCGAGAAGGUUUUGAGUGGG [theeternabot_sameState_KL_FMN_B_16]", "227 nM"),
    ("UUAGUCUAGAGAAGGAGCGCAGUGAUGUUGCGAAUAAUAAUAAUAAUAAAUAAAUAAUCGAUGCAGGUAGGUCGCUCUAGACAUU [AK1 Exc Arginine B]", "217 nM"),
    ("AGUACAGACACGGCCGCCACUCAGAAGAAGAUAGUAGUGAUGUUACUGAUGAUGAGAAUAAUAAAGAGGACCGGGUGUUGUGCAA [#09 K4 Tryptophan B Same State]", "107 nM"),
    ("UGAUUGCCAGUGAUGUUGGCAGGGUCUGAAGGAGCGCGUGAAAACGCAGGUAGGUCGCAGUAUGGUGCCAAUUGAUCGAAAGAUC [KL-XArg-A3]", "226 nM"),
    ("AUGCAUCAGACUUGAUACGGUGAAAUAGCCCGAGGACCGGUACGGCCGCCACUCGGUCCAGUGAUGUUGGAUAAUUAAUCUAGGU [theeternabot_sameState_KL_Trp_A_34]", "197 nM"),
    ("AGUAGUCGACAAGGAUAUACUAGGAGAGACGUUUGCACAUAACCUGCCCUACGAAGUGAUGUUUCGGUAGAAGGUGUUGGGCUGU [theeternabot_exclusion_KL_FMN_B_34]", "96.5 nM"),
    ("UUAGCUCUAUAGAGCAAGAGGUCAACUGAUACCAGAGGCUAUAGCCUCCCUUGGCAGCGGAACGAGUGAUGUUCGAGACCUCAUU [AK6 SS Theophylline A]", "1280 nM"),
    ("AAAUUCUUUUUUUUAUAUAACGAUUCAGAAGGAGCGAGGUAGAACUCAGGUAGGUCGCUGAAUAUAAGACUAGUGAUGUUAGUAA [#01 K4 Arginine A Same State]", "175 nM"),
    ("AAAGACUGACUGCAAUUAGCAGUCAGUCAACGAGGACCGGUACGGCCGCCACUCGGGUCCUAGAGUGAUGUUCUAAUAAUAUAAU [Default title]", "279 nM"),
]
